# reported ED50 at 30 min; entries follow
Assay: Accelerating rotarod test, ataxia (motor coordination)
Type: in vivo, mice
Conditions: mouse, in vivo, ip; NMR female mice, accelerating rotarod
Procedure: NMR female mice (18-28 g) housed 5 per cage were used for the maximal electroshock (MES) and motor impairment tests. All animals were kept with water and food ad libitum under a 12 hour light-dark cycle (light on at 6 a.m.) and at a controlled temperature (20±0.5C). […] The MES test was performed together with tests for myorelaxant action (traction reflex) and motor coordination (rotarod). […] The presence of tonic convulsions was scored (tonic extension of hind paws with minimum angle to the body of 90). […]

Take a look at these entries with their results.
**Query** I have this molecule here, C=CCC1(N2CCCCC2)CC(C)(C)CC(C)(C)C1 [MRZ 2013] , and I need its recorded ED50 at 30 min.
**Result** > 50 mg/kg

**Query** Which ED50 at 30 min value is on record for CC(C)(N)CC1=CC(C)(C)CC(C)(C)C1 [MRZ 2010] ?
**Result** > 50 mg/kg

**Query** Reported ED50 at 30 min for CC1=CC(C)(C)CC(C)(C)C1N.Cl (stereo not shown) [MRZ 2/657] : what is it?
**Result** > 30 mg/kg

Now look at this one.
**Query** For CC(C)(N)C=C1CC(C)(C)CC(C)(C)C1 [MRZ 2019] , what is its reported ED50 at 30 min?
**Result** > 50 mg/kg

Data credit: patent US6828462B2
